For each entry below, report its IC50 value.
- System: WI-38
- assay.name: Antiproliferative activity against human WI38 cells after 4 days by crystal violet staining based spectrophotometric method
- Type: ADME, cell-based
- details: WI-38, 96 h

Sample COc1ccc(P2(=S)OC[C@@H]3OC(C)(C)O[C@H]3CO2)cc1 — what was its IC50?
> 400 µM

Sample S=P1(c2ccccc2)Nc2ccccc2O1 (stereo not drawn) — what was its IC50?
> 50 µM

Sample S=P1(c2ccccc2)OCC2C3CCC(O3)C2CO1 (stereo not drawn) — what was its IC50?
> 400 µM
